Origin of the recorded values: patent US20210395256A1

Assay: Liver microsomes metabolic stability assay, human
Type: in vitro ADME
Details: human liver microsomes 0.5 mg/mL, 37° C.
Quick reference: microsomal CLint at 2 μM of the listed items.
All answers are understood in µL/min/mg, so give the number only.

Field: example entries. Status: answers known.
COCCOc1cc2[nH]c(-c3cnn4ccc(N5CCC[C@@H]5c5cc(F)ccc5F)nc34)nc2cc1C#N    55.8
CNC(=O)c1cc2nc(-c3cnn4ccc(N5CCC[C@@H]5c5cc(F)ccc5F)nc34)[nH]c2cc1OC    56.2
C[C@@H](CO)c1nnc(-c2cnn3ccc(N4CCC[C@@H]4c4cc(F)ccc4F)nc23)[nH]1    17.2
OC1CC(c2nnc(-c3cnn4ccc(N5CCC[C@@H]5c5cc(F)ccc5F)nc34)[nH]2)C1 (stereo partly shown)    16.4
Fc1ccc(F)c([C@H]2CCCN2c2ccn3ncc(-c4nc5cc6c(cc5[nH]4)OC(F)(F)O6)c3n2)c1    10.2
O=C(O)c1nnc(-c2cnn3ccc(N4CCC[C@@H]4c4cc(F)ccc4F)nc23)[nH]1    0.27

Enquiry: Entry CC(C)(O)c1nnc(-c2cnn3ccc(N4CCC[C@@H]4c4cc(F)ccc4F)nc23)[nH]1 has what microsomal CLint at 2 μM?
Return: 11.1
